Biological target: T1, dNELF-E (Drosophila, UniProt P92204 1-280)
T1 sequence: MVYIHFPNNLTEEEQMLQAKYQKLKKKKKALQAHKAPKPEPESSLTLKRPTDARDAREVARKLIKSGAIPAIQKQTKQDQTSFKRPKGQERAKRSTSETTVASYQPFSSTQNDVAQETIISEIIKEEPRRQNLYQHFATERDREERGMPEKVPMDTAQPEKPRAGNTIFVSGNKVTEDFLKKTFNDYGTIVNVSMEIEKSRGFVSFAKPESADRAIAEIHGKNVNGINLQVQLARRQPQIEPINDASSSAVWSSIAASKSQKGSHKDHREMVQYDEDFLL
Experiment: fluorescence polarization; 10 mM HEPES-NaOH pH 7.5, 100 mM NaCl, 25 mM KCl, 1 mM MgCl2, 0.02% Tween-20, 0.01% IGEPAL CA-630, 10 µg/ml yeast tRNA; 2 nM RNA, 0-2000 nM protein, 1-2 h, binding temperature not stated; gel 5% acrylamide 0.5X TBE at 4 °C
Conditions: protein: recombinant; tags: N-terminal His6 (pHIS-parallel1); label: 3' fluorescein (5-thiosemicarbazide); putative K-turn stem-loop
endpoint-label: Kd
Please don't drop the unit; write it after the number.

{"columns": ["binder", "Kd"],
 "data": [
  ["GGCCCCACUGAGGAUGCCCACGGGCGAUUGGGGCCA (structured_RNA) [Napt1min]", "21 nM"]
]}

Next item in the queue.
Sure, the documented Kd for Napt25min (structured_RNA) RNA: GGUCUCCAACUGAGGAUACCGCUCGAGGAAGCGAGUGGCGAUUUGGAGACCU is 30 nM
